Test system: Plasmodium falciparum NF54/iGP1_RE9H ulg8 stage V gametocytes
ASSAY INFO: gametocyte viability (luciferase signal relative to DMSO control) (% of DMSO control); higher = less gametocytocidal activity, active = 50 or less
CONDITION: concentration: 1 µM; exposure time: 72 h
Where a name gives a salt, the structure may show the parent alone. The whole screen tested about 1,300 compounds, of which about 40 (3%) showed activity. This excerpt belongs to a sample that is enriched for actives.
Result category, one only: 1.0 = active, 0.0 = inactive

Reference set (4 entries):
INSERT INTO results (compound, assigned_label) VALUES
  ('CCCCCC[C@H]1C(=O)O[C@H](C)[C@H](NC(=O)c2cccc(NC=O)c2O)C(=O)O[C@@H](C)[C@@H]1OC(=O)CC(C)C [Antimycin A]', 0.0),
  ('C(#CCN1CCCC1)CN1CCCC1 [Tremorine dihydrochloride]', 0.0),
  ('CN1[C@@H]2CC[C@H]1C[C@@H](OC1c3ccccc3CCc3ccccc31)C2 [Deptropine citrate]', 0.0),
  ('CCCN1C[C@H](CSC)C[C@@H]2c3cccc4[nH]cc(c34)C[C@H]21 [Pergolide mesylate]', 0.0);

Returns: the outcome recorded for C[C@]12CCC(=O)C=C1C=C[C@@H]1[C@@H]2CC[C@@]2(C)[C@H]1CC[C@@]2(O)CCC(=O)O [Canrenoic acid potassium salt] in this assay. 0.0

Returns: the outcome recorded for CC(C)C[C@H]1C(=O)N2CCC[C@H]2[C@]2(O)O[C@](NC(=O)[C@@H]3C=C4c5cccc6[nH]c(Br)c(c56)C[C@H]4N(C)C3)(C(C)C)C(=O)N12 [Bromocryptine mesylate] in this assay. 0.0

Returns: the outcome recorded for `COc1ccc(CCN2CCC(Nc3nc4ccccc4n3Cc3ccc(F)cc3)CC2)cc1` in this assay. 0.0

Hey, just so you know, these numbers are from the supplement of paper PMC12297408.
